Type: cell-based, human
Conditions: human, Cell viability (%)
Bridge positions count the residues as written; N and C are the ends. Square brackets hold non-standard residues; d marks the D form. Peptide text beside a SMILES is read from it. * marks the point of attachment. X1 = N=C(N)N[C@@H](Cc1ccccc1)C(=O)*
Could you please report measured viability at 24 h, 3.12 µM for the items listed next?
Lab book: enter the figure in %, no units written.

Query block: Return viability at 24 h, 3.12 µM for the following compound: CC[C@H](C)[C@H](NC(=O)[C@H](CCCNC(=N)N)NC(=O)[C@H]1CCC(=O)NCCCC[C@H](NC(=O)[C@H](Cc2ccccc2)NC(=O)[C@H](Cc2c[nH]c3ccccc23)NC(=O)[C@@H]2CCCN2C(=O)[C@@H](NC(=O)[C@H](Cc2ccccc2)NC(=N)N)C(C)C)C(=O)N[C@@H](CCCCN)C(=O)N[C@@H](Cc2ccccc2)C(=O)N[C@H](CC(C)C)C(=O)N1)C(=O)N[C@@H](CC(C)C)C(N)=O [Peptide 3, guanidino-FVPWF[KKFle]RIL] (X1-VPWFKKF[dL][dE]RIL-NH2; lactam 5-9)
Result block: 93

Query block: Recall and state the measured viability at 24 h, 3.12 µM for CC[C@H](C)[C@H](NC(=O)[C@H](CCCNC(=N)N)NC(=O)[C@@H]1CCCCNC(=N)NCCCC[C@H](NC(=O)[C@H](Cc2ccccc2)NC(=O)[C@H](Cc2c[nH]c3ccccc23)NC(=O)[C@@H]2CCCN2C(=O)[C@@H](NC(=O)[C@@H](N)Cc2ccccc2)C(C)C)C(=O)N[C@@H](CCCCN)C(=O)N[C@@H](Cc2ccccc2)C(=O)N[C@H](CC(C)C)C(=O)N1)C(=O)N[C@@H](CC(C)C)C(N)=O [Peptide 11, FVPWF{KKFlK}RIL] .
Result block: 98
